All values here come from patent US20210070748A1.

Each entry below carries its reported pIC50.
Biological target: TEC (Homo sapiens)
Sequence (P42680 whole entry): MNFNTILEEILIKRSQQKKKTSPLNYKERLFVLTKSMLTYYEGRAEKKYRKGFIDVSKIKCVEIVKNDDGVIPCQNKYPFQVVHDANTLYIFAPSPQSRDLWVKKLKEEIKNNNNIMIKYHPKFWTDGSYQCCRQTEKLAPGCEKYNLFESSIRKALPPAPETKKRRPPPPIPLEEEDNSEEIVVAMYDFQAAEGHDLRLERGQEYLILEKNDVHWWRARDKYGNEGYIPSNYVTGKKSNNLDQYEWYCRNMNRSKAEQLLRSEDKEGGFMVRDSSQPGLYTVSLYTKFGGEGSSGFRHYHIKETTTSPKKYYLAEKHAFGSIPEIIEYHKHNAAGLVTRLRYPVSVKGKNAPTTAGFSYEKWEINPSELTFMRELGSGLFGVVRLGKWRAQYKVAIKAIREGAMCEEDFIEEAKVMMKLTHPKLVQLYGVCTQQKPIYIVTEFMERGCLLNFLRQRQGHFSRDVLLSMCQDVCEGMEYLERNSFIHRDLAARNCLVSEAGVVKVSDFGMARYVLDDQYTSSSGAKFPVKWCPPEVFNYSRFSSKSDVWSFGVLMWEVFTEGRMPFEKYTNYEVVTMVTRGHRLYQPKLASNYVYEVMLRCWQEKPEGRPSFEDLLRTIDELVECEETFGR
Test: Inhibition of a panel of kinases, in vitro HotSpot kinase assay: TEC
Format: biochemical
Details: D-compounds panel data; 1 μM ATP
pIC50: −log10 of the molar value.

The examples below pair each entry with its known result.
molecule	target	pIC50
C[C@@H]1[C@H](NC(=O)c2ccc3c(cnn3C)c2)CCCN1c1cnc(C(N)=O)c(Nc2ccc(N3CCN(C)CC3)cc2)n1 [Example D-234]	TEC (Homo sapiens)	≥ 8.00
C[C@@H]1[C@H](NC(=O)c2ccc(C(C)(C)CO)cc2)CCCN1c1cnc(C(N)=O)c(Nc2cnn(C)c2)n1 [Example D-94]	TEC (Homo sapiens)	7.00 to 8.00
C[C@@H]1[C@H](NC(=O)c2coc(C3CC3)n2)CCCN1c1cnc(C(N)=O)c(Nc2cnn(C)c2)n1 [Example D-257]	TEC (Homo sapiens)	≥ 8.00
Cn1cc(Nc2nc(N3CCC[C@@H](n4ccc5cc(C6CC6)ccc5c4=O)C3)nnc2C(N)=O)cn1 [Example D-206]	TEC (Homo sapiens)	≥ 8.00
CC(C)N1CCN(c2ccc(Nc3nc(N4CCC[C@@H](NC(=O)c5ccc(C6CC6)cc5F)[C@H]4C)cnc3C(N)=O)cc2)CC1 [Example D-7]	TEC (Homo sapiens)	7.00 to 8.00
C[C@@H]1[C@H](NC(=O)c2ccc3scnc3c2)CCCN1c1cnc(C(N)=O)c(Nc2cnn(C)c2)n1 [Example D-237]	TEC (Homo sapiens)	≥ 8.00
C[C@H]1CC[C@@H](NC(=O)c2ccc(C3CC3)cc2)CN1c1cnc(C(N)=O)c(Nc2cnn(C)c2)n1 [Example D-142]	TEC (Homo sapiens)	7.00 to 8.00
Cn1cc(Nc2nc(N3CC[C@@H](O)[C@H](NC(=O)c4ccc(C5CC5)cc4)C3)cnc2C(N)=O)cn1 (racemic) [Example D-26]	TEC (Homo sapiens)	6.00 to 7.00
C[C@@H]1[C@H](NC(=O)c2ccc(C(C)(O)CO)cc2)CCCN1c1cnc(C(N)=O)c(Nc2cnn(C)c2)n1 (single isomer, unassigned) [Example D-256]	TEC (Homo sapiens)	≥ 8.00
CN1CCN(c2ccc(Nc3nc(N4CCC[C@@H](n5ccc6cc(C7CC7)ccc6c5=O)C4)cnc3C(N)=O)cc2)CC1 [Example D-165]	TEC (Homo sapiens)	7.00 to 8.00

**Query** pIC50 lookup needed for C[C@@H]1[C@H](NC(=O)c2ccc(C3CC3)cc2F)CCCN1c1cnc(C(N)=O)c(Nc2ccc(S(=O)(=O)N3CCN(C)CC3)cc2)n1 [Example D-130] , thanks.
**Result** 6.00 to 7.00

**Query** Given the entry CN(C)C(=O)N[C@H]1CCCN(c2cnc(C(N)=O)c(Nc3ccc4ncccc4c3)n2)[C@@H]1CO (racemic) [Example D-64] , report its measured pIC50.
**Result** 5.00 to 6.00

**Query** Looking for the measured pIC50 of Cc1cccc(-c2cnc(C3CCCN(c4cnc(C(N)=O)c(Nc5cnn(C)c5)n4)C3)[nH]2)c1 [Example D-148] , can you help?
**Result** 6.00 to 7.00

====

Biological target: LCK (Homo sapiens, UniProt P06239)
Sequence (P06239 whole entry): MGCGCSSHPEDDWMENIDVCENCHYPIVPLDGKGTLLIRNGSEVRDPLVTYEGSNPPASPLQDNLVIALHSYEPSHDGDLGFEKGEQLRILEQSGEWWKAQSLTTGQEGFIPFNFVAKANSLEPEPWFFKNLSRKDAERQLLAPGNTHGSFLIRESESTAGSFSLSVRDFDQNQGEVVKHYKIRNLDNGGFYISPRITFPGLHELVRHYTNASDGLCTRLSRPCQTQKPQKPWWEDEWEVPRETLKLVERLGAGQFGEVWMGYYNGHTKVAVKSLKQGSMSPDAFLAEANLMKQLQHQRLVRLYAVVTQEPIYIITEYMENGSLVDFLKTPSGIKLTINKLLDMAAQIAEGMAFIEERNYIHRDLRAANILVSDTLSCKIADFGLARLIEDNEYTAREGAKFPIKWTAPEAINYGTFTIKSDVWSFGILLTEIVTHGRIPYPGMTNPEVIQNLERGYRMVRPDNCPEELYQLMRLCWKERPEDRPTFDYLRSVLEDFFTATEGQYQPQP
Assay: Inhibition of a panel of kinases, in vitro HotSpot kinase assay: LCK
Format: biochemical
Conditions: Table 13, A compounds; 1 μM ATP; read-out: IC50 LCK
pIC50: −log10 of the molar value.
recorded-endpoint: pIC50

In the examples that follow, each entry is paired with its recorded pIC50.
given-smiles	recorded-endpoint	result
C[C@@H]1[C@H](NC(=O)c2ccc(C3CC3)cc2F)CCCN1c1cnc(C(N)=O)c(Nc2ccc(N3CCN(C)CC3)nc2)n1	pIC50	6.00 to 7.00
CN1CCC(n2cc(Nc3nc(N4CCC[C@@H](n5ccc6cc(C7CC7)ccc6c5=O)C4)cnc3C(N)=O)cn2)CC1	pIC50	6.00 to 7.00
Cc1nn(C)cc1Nc1nc(N2CCC[C@@H](NC(=O)c3ccc(C4CC4)cc3)[C@H]2C)cnc1C(N)=O	pIC50	< 5.00
C[C@@H]1[C@H](n2ccc3cc(C4CC4)ccc3c2=O)CCCN1c1cnc(C(N)=O)c(Nc2ccc(N3CCN(C)CC3)cc2)n1	pIC50	7.00 to 8.00
Cn1cc(Nc2nc(N3C[C@H](NC(=O)c4ccc(C5CC5)cc4)CC(F)(F)C3)cnc2C(N)=O)cn1	pIC50	6.00 to 7.00

**Query** // lookup pIC50 for C[C@@H]1[C@H](NC(=O)c2ccc(C3CC3)cc2)CCCN1c1cnc(C(N)=O)c(Nc2ccc(N3CCN(C)CC3)cc2)n1
**Result** 7.00 to 8.00

**Query** # query: pIC50 of entry C[C@@H]1[C@H](NC(=O)c2ccc(C3CC3)cc2F)CCCN1c1cnc(C(N)=O)c(Nc2ccc(C3(C)CCN(C4CC4)CC3)cc2)n1
**Result** 7.00 to 8.00

**Query** Which measured pIC50 value corresponds to C[C@@H]1[C@H](NC(=O)c2ccc(C3CC3)cc2F)CCCN1c1cnc(C(N)=O)c(Nc2cnn(C)c2)c1 ?
**Result** 6.00 to 7.00

**Query** Using the record for C[C@@H]1[C@H](NC(=O)c2ccc(C3CC3)cc2F)CCCN1c1cnc(C(N)=O)c(Nc2cc(CN3CCOCC3)ns2)n1 , report its pIC50.
**Result** 7.00 to 8.00

**Query** Returns the measured pIC50 for the input compound. Input: C[C@@H]1[C@H](NC(=O)c2ccc(C3CC3)cc2F)CCCN1c1cnc(C(N)=O)c(Nc2ccc(N3CCN(C)CC3)c(F)c2)n1
**Result** 7.00 to 8.00

**Query** Returns the measured pIC50 for the input compound. Input: C[C@@H]1[C@H](NC(=O)c2ccc(C3CC3)cc2F)CCCN1c1cnc(C(N)=O)c(Nc2cnn(C)c2)n1
**Result** 5.00 to 6.00

**Query** Which pIC50 is reported for this compound? Cn1cc(Nc2nc(N3CCC[C@@H](n4ccc5cc(C6CC6)ccc5c4=O)C3)cnc2C(N)=O)cn1
**Result** 5.00 to 6.00

**Query** I would be grateful if you could share the reported pIC50 for C[C@@H]1[C@H](NC(=O)c2ccc(C3CC3)nc2)CCCN1c1cnc(C(N)=O)c(Nc2cnn(C)c2)n1 .
**Result** 6.00 to 7.00
